Biological target: UniProt:P08684
Sequence (P08684 whole entry): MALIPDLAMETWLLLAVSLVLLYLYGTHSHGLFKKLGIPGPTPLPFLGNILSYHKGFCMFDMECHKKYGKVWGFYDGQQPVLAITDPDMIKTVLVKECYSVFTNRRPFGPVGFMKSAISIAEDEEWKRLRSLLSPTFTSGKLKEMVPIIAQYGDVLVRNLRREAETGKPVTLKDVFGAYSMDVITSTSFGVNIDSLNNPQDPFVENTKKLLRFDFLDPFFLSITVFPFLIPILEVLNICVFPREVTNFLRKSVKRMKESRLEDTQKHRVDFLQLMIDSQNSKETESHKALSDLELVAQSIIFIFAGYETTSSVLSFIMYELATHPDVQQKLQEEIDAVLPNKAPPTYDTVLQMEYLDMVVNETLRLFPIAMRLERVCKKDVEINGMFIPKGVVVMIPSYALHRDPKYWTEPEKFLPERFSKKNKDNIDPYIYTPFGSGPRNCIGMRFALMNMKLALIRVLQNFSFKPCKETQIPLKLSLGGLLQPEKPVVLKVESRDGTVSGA
Experiment: Inhibition of human CYP3A4 using 7-benzyloxyquinoline as substrate
Assay type: ADME
pIC50: −log10 of the molar value.
Overview of recorded pIC50 for various molecules
ASSAY_READOUT: pIC50

# MOLECULE, RESULT_COMPARATOR, VAL
records = [
    ("CC(C)C[C@@H]1C(=O)N[C@H](C2Cc3ccccc3C2)C(=O)N1[C@@H](C(=O)N(C)C)c1ccc(F)cc1F", "=", 4.51),
    ("CC[C@H](C)[C@@H]1C(=O)N[C@H](C2Cc3ccccc3C2)C(=O)N1[C@@H](C(=O)N1CCOCC1)c1ccc(C)nc1C [EPELSIBAN]", "<", 4.00),
]

----------
System: Liver microsomes
Assay: Intrinsic clearance in human liver microsomes
Assay type: ADME, Microsome
Overview of recorded CLH for various molecules
ASSAY_READOUT: CLH

# COMPOUND_STRUCTURE_STRING, TGT, VAL
measured = [
    ("CC[C@H](C)[C@@H]1C(=O)N[C@H](C2Cc3ccccc3C2)C(=O)N1[C@@H](C(=O)N(C)C)c1ccc(C)[n+]([O-])c1", "Liver microsomes", "1 mL/min/g"),
    ("CC[C@H](C)[C@@H]1C(=O)N[C@H](C2Cc3ccccc3C2)C(=O)N1[C@@H](C(=O)NC)c1cc(C)cnc1C", "Liver microsomes", "3 mL/min/g"),
    ("Cc1ccc([C@H](C(=O)N2CCOCC2)N2C(=O)[C@@H](C3Cc4ccccc4C3)NC(=O)[C@H]2CC(C)(C)C)cn1", "Liver microsomes", "4 mL/min/g"),
    ("CC(C)C[C@@H]1C(=O)N[C@H](C2Cc3ccccc3C2)C(=O)N1[C@@H](C(=O)N(C)C)c1ccc(F)cc1F", "Liver microsomes", "14 mL/min/g"),
    ("CC[C@@H](C)[C@@H]1C(=O)N[C@H](C2Cc3ccccc3C2)C(=O)N1[C@@H](C(=O)N1CCOCC1)c1ccc(C)nc1", "Liver microsomes", "4 mL/min/g"),
    ("Cc1ccc([C@H](C(=O)N(C)C)N2C(=O)[C@@H](C3Cc4ccccc4C3)NC(=O)[C@H]2CC(C)(C)C)cn1", "Liver microsomes", "6 mL/min/g"),
    ("Cc1ccc([C@H](C(=O)N(C)C)N2C(=O)[C@@H](C3Cc4ccccc4C3)NC(=O)[C@H]2CC(C)C)cn1", "Liver microsomes", "11 mL/min/g"),
    ("CC[C@H](C)[C@@H]1C(=O)N[C@H](C2Cc3ccccc3C2)C(=O)N1[C@@H](C(=O)N1CCOCC1)c1cnc(C)cc1C", "Liver microsomes", "1 mL/min/g"),
    ("CCC(CC)[C@@H]1C(=O)N[C@H](C2Cc3ccccc3C2)C(=O)N1[C@@H](C(=O)NC)c1ccc(C)nc1", "Liver microsomes", "4 mL/min/g"),
]

----------
Test: AUC in rat at 5 mg/kg, po
Assay type: ADME, organism-based
Design: dose 5 mg/kg, route oral
Conditions: plasma
Overview of recorded AUC for various compounds
ASSAY_READOUT: AUC

# COMPOUND_STRUCTURE_STRING, ASSAY_READOUT, VAL
rows = [
    ("CC[C@H](C)[C@@H]1C(=O)N[C@H](C2Cc3ccccc3C2)C(=O)N1[C@@H](C(=O)N1CCOCC1)c1ccc(C)nc1C", "AUC", "3450 ng·h/mL"),
    ("CC[C@H](C)[C@@H]1C(=O)N[C@H](C2Cc3ccccc3C2)C(=O)N1[C@@H](C(=O)N(C)C)c1cnc(C)cc1C", "AUC", "2680 ng·h/mL"),
    ("CC(C)C[C@@H]1C(=O)N[C@H](C2Cc3ccccc3C2)C(=O)N1[C@@H](C(=O)N(C)C)c1ccc(F)cc1F", "AUC", "2970 ng·h/mL"),
    ("CC(C)C[C@@H]1C(=O)N[C@H](C2Cc3ccccc3C2)C(=O)N1[C@@H](C(=O)N(C)C)c1ccc(N(C)C)nc1", "AUC", "135 ng·h/mL"),
]
